# assay_details: Pharmacokinetic evaluation in ICR mice after intravenous injection
# Assay type: in vivo
# protocol_conditions: mouse; ICR male mice, 1.0 mg/kg intravenous, plasma
# Method: A test compound (1.0 mg/kg) was administered to fasted ICR male mice via intravenous injection, and blood samples were collected at time points of 0.08, 0.25, 0.5, 1, 2, 4, 6, 8 and 24 h after the administration. Plasma sample was separated by centrifugation (8000 rpm) and stored at −80° C. until the sample was analyzed. […] The supernatant was transferred to an autosampler vial, injected into the chromatographic system, and quantified on MS/MS detector. […]
# binarize clearance: threshold 0.1 mL/min/kg inclusive, high side class 1, low side class 0

Answered examples (5):
clearance >= 0.1 mL/min/kg for O=P(O)(O)CP(=O)(O)OC[C@H]1O[C@@H](n2cnc3c(N4CC5(CCc6ccccc65)C4)nc(Cl)nc32)[C@@H](O)C1O (some centres unmarked) ?
class 1

Query O=P(O)(O)CP(=O)(O)OC[C@H]1O[C@@H](n2cnc3c(N4CC5(Cc6ccccc6C5)C4)nc(Cl)nc32)[C@@H](O)C1O (some centres unmarked) next
class 1

Would you kindly repeat that for O=P(O)(O)CP(=O)(O)OC[C@H]1O[C@@H](n2cnc3c(N4CC5(CCCCC5)c5ccccc54)nc(Cl)nc32)[C@@H](O)C1O (some centres unmarked) ?
class 0

Same again, this time with O=P(O)(O)CP(=O)(O)OC[C@H]1O[C@@H](n2cnc3c(N4CCC5(CC4)Cc4ccccc4C5)nc(Cl)nc32)[C@@H](O)C1O (some centres unmarked)
class 1

Thanks! And O=P(O)(O)CP(=O)(O)OC[C@H]1O[C@@H](n2cnc3c(N4CC5(CCCC5)c5ccccc54)nc(Cl)nc32)[C@@H](O)C1O (some centres unmarked) ?
class 0

Continuing:
Is clearance for C[C@H](Nc1cc(Cl)nc2c1cnn2[C@@H]1O[C@H](COP(=O)(O)CP(=O)(O)O)[C@@H](O)[C@H]1O)c1ccccc1F [Compound a, AB680, reference compound] at or above 0.1 mL/min/kg?
class 1

And what about the compound O=P(O)(O)CP(=O)(O)OC[C@H]1O[C@@H](n2cnc3c(N4CCC5(CCCCC5)C4)nc(Cl)nc32)[C@@H](O)C1O (some centres unmarked) [Compound b, reference compound] ?
class 1

Would you kindly repeat that for O=P(O)(O)CP(=O)(O)OC[C@H]1O[C@@H](n2cnc3c(N4CC5(CCC5)c5ccccc54)nc(Cl)nc32)[C@@H](O)C1O (some centres unmarked) ?
class 1

Field entry: O=P(O)(O)CP(=O)(O)OC[C@H]1O[C@@H](n2cnc3c(N4CC5(CCCc6ccccc65)C4)nc(Cl)nc32)[C@@H](O)C1O (some centres unmarked)
class 1

Now the compound O=P(O)(O)CP(=O)(O)OC[C@H]1O[C@@H](n2cnc3c(N4CCC5(CCCc6ccccc65)C4)nc(Cl)nc32)[C@@H](O)C1O (some centres unmarked)
class 1

The values you see were collected from patent US20240024346A1.
